# target_or_system: Full length KDM2B (Homo sapiens (Human), UniProt Q8NHM5)
# Sequence (Q8NHM5 whole entry): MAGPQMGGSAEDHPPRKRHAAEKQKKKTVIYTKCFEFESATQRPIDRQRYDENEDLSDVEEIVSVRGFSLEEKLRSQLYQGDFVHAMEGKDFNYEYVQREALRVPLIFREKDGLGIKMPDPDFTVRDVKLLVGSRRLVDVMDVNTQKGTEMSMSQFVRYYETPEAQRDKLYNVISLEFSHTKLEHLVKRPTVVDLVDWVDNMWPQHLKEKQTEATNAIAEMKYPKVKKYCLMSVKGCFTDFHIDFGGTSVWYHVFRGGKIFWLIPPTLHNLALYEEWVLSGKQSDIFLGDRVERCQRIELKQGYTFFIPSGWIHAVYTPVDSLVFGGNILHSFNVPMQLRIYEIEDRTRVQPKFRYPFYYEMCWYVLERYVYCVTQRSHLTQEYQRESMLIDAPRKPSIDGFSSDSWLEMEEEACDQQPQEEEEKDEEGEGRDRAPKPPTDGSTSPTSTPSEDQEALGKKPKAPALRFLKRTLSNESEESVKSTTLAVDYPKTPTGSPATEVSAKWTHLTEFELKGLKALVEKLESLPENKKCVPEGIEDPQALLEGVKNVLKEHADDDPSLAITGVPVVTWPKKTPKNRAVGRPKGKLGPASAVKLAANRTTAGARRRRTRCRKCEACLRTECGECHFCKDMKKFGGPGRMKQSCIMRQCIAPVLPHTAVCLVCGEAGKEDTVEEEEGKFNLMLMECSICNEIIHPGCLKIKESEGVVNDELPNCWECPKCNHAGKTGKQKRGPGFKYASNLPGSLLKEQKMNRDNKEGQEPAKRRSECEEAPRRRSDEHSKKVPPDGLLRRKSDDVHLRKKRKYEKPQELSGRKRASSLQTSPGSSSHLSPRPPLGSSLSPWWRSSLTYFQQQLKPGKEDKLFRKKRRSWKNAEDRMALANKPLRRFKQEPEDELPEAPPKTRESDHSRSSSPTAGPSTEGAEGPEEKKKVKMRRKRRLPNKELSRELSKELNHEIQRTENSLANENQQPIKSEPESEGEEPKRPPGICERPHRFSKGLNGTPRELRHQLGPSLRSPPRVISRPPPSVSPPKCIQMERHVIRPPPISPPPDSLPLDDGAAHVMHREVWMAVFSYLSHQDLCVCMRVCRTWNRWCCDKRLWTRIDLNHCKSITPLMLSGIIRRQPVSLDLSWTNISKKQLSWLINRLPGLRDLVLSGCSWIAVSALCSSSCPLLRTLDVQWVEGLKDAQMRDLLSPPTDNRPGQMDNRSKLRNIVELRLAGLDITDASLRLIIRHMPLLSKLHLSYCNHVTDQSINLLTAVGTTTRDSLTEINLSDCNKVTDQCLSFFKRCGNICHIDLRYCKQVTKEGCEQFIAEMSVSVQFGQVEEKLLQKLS
pIC50: −log10 of the molar value. Where a name gives a salt, the structure may show the parent alone.
measure: pIC50

| compound | target_or_system | numeric_result |
| --- | --- | --- |
| C[C@@H]1CCN(C2CCCC2)C[C@H]1C(=O)c1ccc2cc(C#N)ccc2c1 (stereo in doubt) [Example 162b] | Full length KDM2B (Homo sapiens (Human), UniProt Q8NHM5) | 7.07 |
| COc1cccc2cc(C(=O)C3CN(CC4CC4)CCC3C)ccc12 (single isomer, unassigned) [Example 136a] | Full length KDM2B (Homo sapiens (Human), UniProt Q8NHM5) | 7.38 |
| O=C(c1ccc2c(c1)CCCCC2)C1CCCN(C2CCC2)C1 (stereo not shown) [Example 132] | Full length KDM2B (Homo sapiens (Human), UniProt Q8NHM5) | 7.26 |
| CCCC1CCN(C2CCC2)CC1C(=O)c1ccc2cc(OC)ccc2c1 (single isomer, unassigned) [Example 140a] | Full length KDM2B (Homo sapiens (Human), UniProt Q8NHM5) | 6.51 |
| CCC[C@@H]1CCN(C2CCC2)C[C@@H]1C(=O)c1ccc2c(CC#N)c(OC)ccc2c1 (stereo in doubt) [Example 184a] | Full length KDM2B (Homo sapiens (Human), UniProt Q8NHM5) | 7.11 |
| COc1ccc2cc(C(=O)C3CN(CC4CC4)CCC3C(F)(F)F)ccc2c1 (single isomer, unassigned) [Example 138a] | Full length KDM2B (Homo sapiens (Human), UniProt Q8NHM5) | 6.86 |
| COc1ccc2cc(C(=O)C3CCCN(C4CCC4)C3)ccc2c1CO (stereo not shown) [Example 189, hydrochloride] | Full length KDM2B (Homo sapiens (Human), UniProt Q8NHM5) | 7.26 |
| COc1ccc2cc(C(=O)C3CN(C4CCC4)CCC3CC(C)C)ccc2c1 (single isomer, unassigned) [Example 144b] | Full length KDM2B (Homo sapiens (Human), UniProt Q8NHM5) | 6.57 |
| COc1cc2ccc(C(=O)C3CCCN(CC4CC4)C3)cc2cn1 (stereo not shown) [Example 121] | Full length KDM2B (Homo sapiens (Human), UniProt Q8NHM5) | 6.42 |
| COc1ccc2cc(C(=O)C3CN(CC4CC4)CCC3OC)ccc2c1 (single isomer, unassigned) [Example 146b] | Full length KDM2B (Homo sapiens (Human), UniProt Q8NHM5) | 6.89 |
| O=C(c1ccc(Cl)cc1)[C@@H]1CCCN(CC2CC2)C1 (stereo in doubt) [Example 116a] | Full length KDM2B (Homo sapiens (Human), UniProt Q8NHM5) | 5.24 |
| COc1ccc2cc(C(=O)C3CC(O)CN(CC4CC4)C3)ccc2c1 (stereo not shown) [Example 155] | Full length KDM2B (Homo sapiens (Human), UniProt Q8NHM5) | 6.11 |
| O=C(c1ccc(-c2ccccc2)cc1)[C@H]1CCCN(CC2CC2)C1 [Example 33] | Full length KDM2B (Homo sapiens (Human), UniProt Q8NHM5) | 7.02 |
| O=C(c1cc(CO)c2ccccc2c1)C1CCCN(C2CCC2)C1 (stereo not shown) [Example 58] | Full length KDM2B (Homo sapiens (Human), UniProt Q8NHM5) | 7.32 |
| COc1ccc2cc(C(=O)C3CCCN(CCC#N)C3)ccc2c1 (stereo not shown) [Example 84] | Full length KDM2B (Homo sapiens (Human), UniProt Q8NHM5) | 6.15 |
| O=C(c1cc(CO)c2ccccc2c1)C1CCCN(C2CCCC2)C1 (stereo not shown) [Example 57] | Full length KDM2B (Homo sapiens (Human), UniProt Q8NHM5) | 6.90 |
